Hey, just so you know, these numbers are from patent US20250250357A1.

The entries below come with measured OD450 values attached.
Molecular target: T1, human MSLN-R1-his protein (human, UniProt Q13421 296-390)
T1 construct: also called human MSLN-R1 protein; hMSLN-R1-his; not shown: His tag
T1 sequence (Q13421 other isoform, or with tags, fused parts or gaps): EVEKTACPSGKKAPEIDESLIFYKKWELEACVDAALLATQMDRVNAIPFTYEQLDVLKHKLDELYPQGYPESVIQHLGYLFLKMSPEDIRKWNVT
Experiment: ELISA, coated antigen; antibody 0.001 nM
Supply the numeric figure in OD450, leaving out any unit text.

// solved cases for OD450 follow
binder	OD450, OD450
S009-F5-9.16 (antibody, human IgG1, kappa, V domains shown, Human-murine chimeric antibody, human IgG1/kappa constant regions) VH: EVQLRQSGPVLVKPGASVKMSCKASGYTFTDYFMNWVKPSHGKSLEWIGVINPSNGVINYNQRFKGKATLTVDKSSSTAYMELNSLTSEDSAVYYCARSYDFAWFAYWGQGTLVTVSA VL: DVLMTQTPLSLPVSLGDQASISCRSSQNIVHSNGNTYLEWYLQKPGQSPKLLIYTVSNRFSGVPDRFSGSGSGTDFTLKISRVEAEDLGVYYCFQGSHVPYTFGGGTKLEIKR	0.04
S009-F4-127.10 (antibody, human IgG1, kappa, V domains shown, Human-murine chimeric antibody, human IgG1/kappa constant regions) VH: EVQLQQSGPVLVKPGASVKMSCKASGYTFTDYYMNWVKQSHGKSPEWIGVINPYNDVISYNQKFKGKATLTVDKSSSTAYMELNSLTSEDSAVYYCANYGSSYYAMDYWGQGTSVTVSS VL: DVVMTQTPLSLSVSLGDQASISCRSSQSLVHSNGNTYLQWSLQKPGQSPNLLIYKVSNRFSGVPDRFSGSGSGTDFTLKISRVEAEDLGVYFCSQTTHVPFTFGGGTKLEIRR	0.05
S009-F6-76.1 (antibody, human IgG1, kappa, V domains shown, Human-murine chimeric antibody, human IgG1/kappa constant regions) VH: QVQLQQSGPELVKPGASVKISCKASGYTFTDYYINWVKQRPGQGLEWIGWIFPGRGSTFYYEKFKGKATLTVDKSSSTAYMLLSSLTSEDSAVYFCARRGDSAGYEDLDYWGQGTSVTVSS VL: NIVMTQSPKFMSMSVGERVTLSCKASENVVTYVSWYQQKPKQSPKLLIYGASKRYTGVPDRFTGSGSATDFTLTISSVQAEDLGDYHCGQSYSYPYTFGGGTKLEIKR	0.04

Now for another entry.
Request: Quick one: OD450 for S009-F4-94.15 (antibody, human IgG1, kappa, V domains shown, Human-murine chimeric antibody, human IgG1/kappa constant regions) VH: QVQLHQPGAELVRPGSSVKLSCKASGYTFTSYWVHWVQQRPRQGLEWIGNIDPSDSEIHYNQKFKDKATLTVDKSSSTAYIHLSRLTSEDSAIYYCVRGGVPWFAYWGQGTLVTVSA VL: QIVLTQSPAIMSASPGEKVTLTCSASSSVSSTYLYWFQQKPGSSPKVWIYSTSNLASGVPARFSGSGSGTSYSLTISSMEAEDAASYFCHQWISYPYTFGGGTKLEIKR ?
Response: 0.05
